procedure_details: XRPD of stressed pioglitazone HCl binary/acidified compacts (free base formation)
Type: physicochemical
experimental_parameters: organic acid in a 1:1 weight ratio with the carboxylate excipient; NIR and XRPD
metric: Inhibition of disproportionation via acidification (Table 6 and FIGS. 2 and 3)

molecule="O=C(O)C(O)C(O)C(=O)O (stereo not shown) [Tartaric Acid]" test_result="completely inhibited"
molecule="O=C(O)/C=C\\C(=O)O [Maleic Acid]" test_result="completely inhibited"
